- subject of test: Cyno BCMA
- test description: Kinetics and affinity of cyno BCMA/human IgG interactions by SPR (Bio-Rad Proteon XPR36)
- Format: binding, cynomolgus
- condition context: 37° C.
The entries below are paired with their reported kd Cyno.
Dear colleague, please return just the value in s⁻¹, with no unit written.

Reference set, count: 5
Request the reported kd Cyno associated with C01_Rd4_0.6 nM_C16: anti-BCMA antibody (antibody, V domains shown) VH: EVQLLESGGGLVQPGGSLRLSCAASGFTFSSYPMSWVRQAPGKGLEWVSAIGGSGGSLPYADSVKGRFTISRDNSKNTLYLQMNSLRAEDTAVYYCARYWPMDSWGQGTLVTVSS VL: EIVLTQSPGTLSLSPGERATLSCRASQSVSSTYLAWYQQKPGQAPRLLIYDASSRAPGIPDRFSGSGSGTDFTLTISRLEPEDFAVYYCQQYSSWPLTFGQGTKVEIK
0.00464

Look up kd Cyno: C01_Rd4_6 nM_C04: anti-BCMA antibody (antibody, V domains shown) VH: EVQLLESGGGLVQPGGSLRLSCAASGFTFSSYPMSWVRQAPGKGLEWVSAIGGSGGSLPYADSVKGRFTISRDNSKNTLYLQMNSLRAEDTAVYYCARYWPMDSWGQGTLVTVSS VL: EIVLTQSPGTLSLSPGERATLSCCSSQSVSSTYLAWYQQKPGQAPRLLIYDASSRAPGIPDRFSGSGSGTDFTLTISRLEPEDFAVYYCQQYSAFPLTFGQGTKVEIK
0.0327

Consider the molecule COMBO_Rd4_6 nM_C02: anti-BCMA antibody (antibody, V domains shown) VH: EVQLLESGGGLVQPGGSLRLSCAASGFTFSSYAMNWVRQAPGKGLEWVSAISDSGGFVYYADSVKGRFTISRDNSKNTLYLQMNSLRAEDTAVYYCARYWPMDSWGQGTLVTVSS VL: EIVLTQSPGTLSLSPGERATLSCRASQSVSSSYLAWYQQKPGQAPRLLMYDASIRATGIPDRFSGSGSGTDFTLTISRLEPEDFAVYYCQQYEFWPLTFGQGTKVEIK and give its measured kd Cyno.
0.00136

Reported kd Cyno for COMBO_Rd4_0.6 nM_C14: anti-BCMA antibody (antibody, V domains shown) VH: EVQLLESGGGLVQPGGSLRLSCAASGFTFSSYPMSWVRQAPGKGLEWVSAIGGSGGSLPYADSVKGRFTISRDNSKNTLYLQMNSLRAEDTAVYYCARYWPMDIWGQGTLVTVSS VL: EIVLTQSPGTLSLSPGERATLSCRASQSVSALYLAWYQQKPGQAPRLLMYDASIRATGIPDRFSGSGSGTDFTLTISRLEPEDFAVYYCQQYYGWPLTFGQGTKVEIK : what is it?
0.000645

Entry COMBO_Rd4_0.6 nM_C02: anti-BCMA antibody (antibody, V domains shown) VH: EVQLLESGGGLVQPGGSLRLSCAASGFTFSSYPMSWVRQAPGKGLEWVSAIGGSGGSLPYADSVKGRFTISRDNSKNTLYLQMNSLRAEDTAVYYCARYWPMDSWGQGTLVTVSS VL: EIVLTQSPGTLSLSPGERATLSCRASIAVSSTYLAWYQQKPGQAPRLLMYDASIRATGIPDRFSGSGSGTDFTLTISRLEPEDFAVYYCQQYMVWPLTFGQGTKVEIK : reported kd Cyno = ?
0.000494

New cases:
Consider the molecule C01_Rd4_6 nM_C09: anti-BCMA antibody (antibody, V domains shown) VH: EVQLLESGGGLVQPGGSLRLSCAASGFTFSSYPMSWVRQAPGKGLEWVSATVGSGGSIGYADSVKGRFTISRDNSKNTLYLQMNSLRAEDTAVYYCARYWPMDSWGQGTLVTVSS VL: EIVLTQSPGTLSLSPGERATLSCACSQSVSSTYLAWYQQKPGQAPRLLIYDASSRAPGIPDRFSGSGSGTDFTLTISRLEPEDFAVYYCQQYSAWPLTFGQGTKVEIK and give its measured kd Cyno.
0.00868

Entry under review: C01_Rd4_0.6 nM_C27: anti-BCMA antibody (antibody, V domains shown) VH: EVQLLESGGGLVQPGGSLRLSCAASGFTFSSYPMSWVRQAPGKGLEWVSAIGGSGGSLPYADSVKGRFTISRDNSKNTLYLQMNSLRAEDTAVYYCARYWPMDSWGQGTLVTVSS VL: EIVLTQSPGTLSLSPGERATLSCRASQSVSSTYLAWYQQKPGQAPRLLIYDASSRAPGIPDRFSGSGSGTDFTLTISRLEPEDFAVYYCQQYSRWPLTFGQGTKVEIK . Reported kd Cyno?
0.00285

Any idea what kd Cyno was measured for COMBO_Rd4_0.6 nM_C30: anti-BCMA antibody (antibody, V domains shown) VH: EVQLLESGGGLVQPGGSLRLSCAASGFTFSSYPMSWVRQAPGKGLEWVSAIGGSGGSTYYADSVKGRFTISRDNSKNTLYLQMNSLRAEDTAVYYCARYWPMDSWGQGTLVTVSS VL: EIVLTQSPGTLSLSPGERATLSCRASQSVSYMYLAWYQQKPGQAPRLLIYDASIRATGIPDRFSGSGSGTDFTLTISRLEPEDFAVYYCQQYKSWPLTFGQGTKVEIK ?
0.000808

Consider the molecule A02_Rd4_0.6 nM_C10: anti-BCMA antibody (antibody, V domains shown) VH: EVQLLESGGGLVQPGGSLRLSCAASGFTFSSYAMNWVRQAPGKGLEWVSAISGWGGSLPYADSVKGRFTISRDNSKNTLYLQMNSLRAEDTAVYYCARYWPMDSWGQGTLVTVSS VL: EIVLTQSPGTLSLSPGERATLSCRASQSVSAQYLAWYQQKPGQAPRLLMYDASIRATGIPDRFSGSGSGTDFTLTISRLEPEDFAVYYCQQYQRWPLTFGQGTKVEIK and give its measured kd Cyno.
0.00163
